target.or.test.system: T1, recombinant human soluble gpNMB (recombinant human gpNMB-FLAG-His) (human, UniProt Q14956 23-498)
T1 sequence: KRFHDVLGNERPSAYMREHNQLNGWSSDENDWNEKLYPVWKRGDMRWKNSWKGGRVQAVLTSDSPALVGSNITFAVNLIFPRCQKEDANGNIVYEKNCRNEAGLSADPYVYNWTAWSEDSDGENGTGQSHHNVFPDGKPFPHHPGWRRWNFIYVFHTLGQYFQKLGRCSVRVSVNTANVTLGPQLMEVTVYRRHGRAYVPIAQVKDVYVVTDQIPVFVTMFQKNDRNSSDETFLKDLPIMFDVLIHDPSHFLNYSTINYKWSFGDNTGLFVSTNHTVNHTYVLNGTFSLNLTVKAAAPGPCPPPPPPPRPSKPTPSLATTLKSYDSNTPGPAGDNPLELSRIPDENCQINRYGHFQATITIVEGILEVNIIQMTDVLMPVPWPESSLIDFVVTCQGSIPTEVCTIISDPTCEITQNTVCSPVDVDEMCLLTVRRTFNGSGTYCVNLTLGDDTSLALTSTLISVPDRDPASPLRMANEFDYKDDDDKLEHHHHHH
assay.procedure: antigen ELISA
quantity: EC50 (nM)
Please give a number only; it is taken to be in nM.

Quick one: EC50 of hGPN06-1_H1L1 VH Y102A (antibody, V domains shown) VH: QVQLVQSGAEVKKPGASVKVSCKASGYTFTDNWMGWVKQRPGQGLEWIGAIDPSDSFTNYNQNFKGRVTMTVDTSISTAYMELSRLRSDDSAVYFCTRSGYAGSPKLGGDYWGQGTLVTVSS VL: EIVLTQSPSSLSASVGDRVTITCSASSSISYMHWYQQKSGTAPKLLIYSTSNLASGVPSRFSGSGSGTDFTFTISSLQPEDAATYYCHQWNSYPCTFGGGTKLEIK ?
2.21

Item hGPN06-1_H1L1 VH Y101A (antibody, V domains shown) VH: QVQLVQSGAEVKKPGASVKVSCKASGYTFTDNWMGWVKQRPGQGLEWIGAIDPSDSFTNYNQNFKGRVTMTVDTSISTAYMELSRLRSDDSAVYFCTRSGAYGSPKLGGDYWGQGTLVTVSS VL: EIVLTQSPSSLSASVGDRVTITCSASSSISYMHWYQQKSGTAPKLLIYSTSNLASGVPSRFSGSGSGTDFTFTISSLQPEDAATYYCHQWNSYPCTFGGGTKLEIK has what recorded EC50?
0.502

Entry hGPN06-1_H1L1 VH S99A (antibody, V domains shown) VH: QVQLVQSGAEVKKPGASVKVSCKASGYTFTDNWMGWVKQRPGQGLEWIGAIDPSDSFTNYNQNFKGRVTMTVDTSISTAYMELSRLRSDDSAVYFCTRAGYYGSPKLGGDYWGQGTLVTVSS VL: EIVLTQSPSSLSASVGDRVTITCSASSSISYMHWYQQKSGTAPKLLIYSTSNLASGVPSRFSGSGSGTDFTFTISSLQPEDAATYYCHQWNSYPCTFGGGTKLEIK : reported EC50 = ?
0.587
